SYSTEM: P2X7 (Homo sapiens (Human))
PROCEDURE TEXT: P2X7 antagonism in human peripheral blood mononuclear cells (PBMCs), IL-1β release
Assay type: cell-based
ASSAY CONTEXT: P2X7, Table 2 (additional runs), 10 μM compound, LPS 30 ng/ml + Bz-ATP 0.5 mM, read-out: PBMC 10 μM (% control)
Protocol: P2X7 Antagonism in Human Peripheral Blood Mononuclear Cells (PBMCs) and Human Whole Blood. Human blood was collected using a blood donor program. PBMCs were isolated from blood using a Ficoll density gradient technique. […] Data was expressed as percent control, where control is defined as the difference in IL-1β release in LPS+Bz-ATP samples and LPS only samples. […] Data are analyzed and graphed on Graphpad Prism 5. […]
READOUT KIND: remaining activity at 10 µM (%)
API: value field is a number in %; no unit string.

Give recorded remaining activity at 10 µM. Cc1ncsc1-c1nnc2n1C[C@@H]1CC[C@H]2N1C(=O)c1cccc(C(F)(F)F)c1Cl 0.6

Name the recorded remaining activity at 10 µM of the compound listed here: Cc1c(C(=O)N2[C@@H]3CCC[C@H]2c2nnc(-c4ccccn4)n2C3)cccc1C(F)(F)F (stereo in doubt) -4

For the compound O=C(c1cccc(C(F)(F)F)c1Cl)N1[C@H]2CCC[C@@H]1c1nnc(-c3ccc(F)cc3)n1C2 (stereo in doubt) , report remaining activity at 10 µM. -4.4

Tell me remaining activity at 10 µM reported for O=C(c1cccc(C(F)(F)F)c1Cl)N1[C@H]2CCC[C@@H]1c1nnc(-c3cccnc3)n1C2 (stereo in doubt) 2.4

Return the recorded remaining activity at 10 µM value; entry: COc1ccnc(-c2nnc3n2C[C@H]2CCC[C@@H]3N2C(=O)c2cccc(C(F)(F)F)c2Cl)c1 (stereo in doubt) 4.8

Respond only with remaining activity at 10 µM recorded for O=C(c1ccnc(C(F)(F)F)c1Cl)N1[C@@H]2CCC[C@H]1c1nnc(-c3cccs3)n1C2 (stereo in doubt) -1.2

In one line, give reported remaining activity at 10 µM of the entry O=C(c1ccnc(C(F)(F)F)c1Cl)N1[C@@H]2CCC[C@H]1c1nnc(-c3ccccn3)n1C2 (stereo in doubt) . -3.2

====

Provide the recorded remaining activity at 10 µM for the entries that follow.
SYSTEM: P2X7 (Homo sapiens (Human), UniProt Q99572)
Sequence (Q99572 whole entry): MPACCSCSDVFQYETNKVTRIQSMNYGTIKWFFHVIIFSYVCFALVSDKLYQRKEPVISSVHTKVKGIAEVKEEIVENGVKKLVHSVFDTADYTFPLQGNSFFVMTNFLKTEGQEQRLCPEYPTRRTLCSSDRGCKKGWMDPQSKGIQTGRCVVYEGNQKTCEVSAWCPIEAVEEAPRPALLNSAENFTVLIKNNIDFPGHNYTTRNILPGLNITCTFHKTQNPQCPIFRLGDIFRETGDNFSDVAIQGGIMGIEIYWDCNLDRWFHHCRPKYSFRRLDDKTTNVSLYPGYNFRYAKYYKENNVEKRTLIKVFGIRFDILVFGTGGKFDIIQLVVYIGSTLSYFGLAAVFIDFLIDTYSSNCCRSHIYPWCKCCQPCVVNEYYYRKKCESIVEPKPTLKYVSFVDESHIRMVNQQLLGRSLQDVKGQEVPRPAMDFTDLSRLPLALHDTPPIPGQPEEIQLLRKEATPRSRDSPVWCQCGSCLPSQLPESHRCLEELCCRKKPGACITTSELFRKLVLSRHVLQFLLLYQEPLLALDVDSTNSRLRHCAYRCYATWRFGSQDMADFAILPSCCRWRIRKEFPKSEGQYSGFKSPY
PROCEDURE TEXT: P2X7 antagonism in human peripheral blood mononuclear cells (PBMCs), IL-1β release
Type: cell-based
ASSAY CONTEXT: P2X7, Table 1, 10 μM compound, LPS 30 ng/ml + Bz-ATP 0.5 mM, read-out: PBMC 10 μM (% control)
Entry rule: numbers only, all in %.

Provide remaining activity at 10 µM value for the following molecule: O=C(c1cccc(C(F)(F)F)c1Cl)N1[C@H]2CCC[C@@H]1c1nnc(-c3ncccn3)n1C2 (stereo in doubt) [Example 2] 45.7

Note down remaining activity at 10 µM recorded for O=C(c1cccc(C(F)(F)F)c1Cl)N1[C@H]2CCC[C@@H]1c1nnc(-c3ccc(F)cn3)n1C2 (stereo in doubt) [Example 11] 38.9

Look up remaining activity at 10 µM of COc1ccnc(-c2nnc3n2C[C@@H]2CCC[C@H]3N2C(=O)c2cccc(C(F)(F)F)c2Cl)c1 (stereo in doubt) [Example 26] and report it. 9.2

Indicate the recorded remaining activity at 10 µM value for this molecule: O=C(c1cccc(C(F)(F)F)c1Cl)N1[C@H]2CCC[C@@H]1c1nnc(-c3cccnc3)n1C2 (stereo in doubt) [Example 14] 2.4

Output measured remaining activity at 10 µM for this item: O=C(c1cccc(C(F)(F)F)c1Cl)N1[C@@H]2CCC[C@H]1c1nnc(-c3ccc(F)cn3)n1C2 (stereo in doubt) [Example 12] -0.8

Supply recorded remaining activity at 10 µM for O=C(c1cccc(C(F)(F)F)c1Cl)N1[C@@H]2CCC[C@H]1c1nnc(-c3ncc(F)cn3)n1C2 (stereo in doubt) [Example 18] here. -9

Please report remaining activity at 10 µM for the following molecule: Cc1cccc(-c2nnc3n2C[C@H]2CCC[C@@H]3N2C(=O)c2cccc(C(F)(F)F)c2Cl)n1 (stereo in doubt) [Example 24] 32.7

Tell me remaining activity at 10 µM reported for O=C(c1ccc(Cl)cc1Cl)N1[C@@H]2CCC[C@H]1c1nnc(-c3ncc(F)cn3)n1C2 (stereo in doubt) [Example 21] -2.1

Give the measured remaining activity at 10 µM for Cc1ccc(-c2nnc3n2C[C@H]2CCC[C@@H]3N2C(=O)c2ccnc(C(F)(F)F)c2Cl)s1 (stereo in doubt) [Example 39] 5.8

Specify measured remaining activity at 10 µM for Cc1cccc(-c2nnc3n2C[C@@H]2CCC[C@H]3N2C(=O)c2cccc(C(F)(F)F)c2Cl)n1 (stereo in doubt) [Example 23] . 8
